STUDY_TARGET: mouse PKCα (Mus musculus)
ASSAY_TEXT: PKC binding assay
RECORDED_ENDPOINT: pKi
# reply with the number alone; pKi is -log10 of concentration in mol/L

These recorded examples may help you get a feel for the data.
C=CCCCCCOc1ccc2c(c1)N(C)[C@@H](C(C)C)C(=O)N[C@H](CO)C2 : 8.27
CC(=O)SCCCOc1ccc2c(c1)N(C)[C@@H](C(C)C)C(=O)N[C@H](CO)C2 : 7.68
CC(=O)SCCCCCCCCOc1ccc2c(c1)N(C)[C@@H](C(C)C)C(=O)N[C@H](CO)C2 : 8.55
CC(=O)SCCCCCCCOc1ccc2c(c1)N(C)[C@@H](C(C)C)C(=O)N[C@H](CO)C2 : 8.35
CC(=O)SCCCCOc1ccc2c(c1)N(C)[C@@H](C(C)C)C(=O)N[C@H](CO)C2 : 7.80

// switching to the query compound
q: Answer with reported pKi of CC(=O)SCCCCCOc1ccc2c(c1)N(C)[C@@H](C(C)C)C(=O)N[C@H](CO)C2
a: 8.18

* * *

STUDY_TARGET: mouse PKCα (Mus musculus, UniProt P20444)
ASSAY_TEXT: PKC binding assay
SETUP_CONDITIONS: read-out: Ki [nM] ± SEM
RECORDED_ENDPOINT: Ki
Show the value, then the unit it is measured in.

q: Answer with reported Ki of CC(C)[C@H]1C(=O)N[C@H](CO)Cc2ccc(O)cc2N1C
a: 4840 nM

The origin of these recorded values is paper PMC3057395.
